# key: entry, value: switch fluorescence ratio
# Tested on: ATP;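 further: ATP exposure 15 min at 22 °C before imaging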
# protocol description: switch fluorescence ratio, 500 uM ATP over buffer (Cy3 cluster intensity, sum of 5 cycles each) (fold (ratio)); higher = stronger signal-on switching upon ATP binding; sequences stand for … in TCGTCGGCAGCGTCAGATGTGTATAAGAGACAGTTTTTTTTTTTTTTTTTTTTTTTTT…TC
# run conditions: aptamer strand: ATP DNA aptamer (quencher-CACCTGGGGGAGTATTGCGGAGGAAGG + anchor), 100 nM annealed; ATP concentration: 500 uM
Please state the value as a number alone, without comment.

[[record]]
sequence_data = "AAGGCCTTCT"
measured_parameter = "switch fluorescence ratio"
value_reported = 0.994

[[record]]
sequence_data = "TGAAAGGGAT"
measured_parameter = "switch fluorescence ratio"
value_reported = 0.988


Request: Using the record for TGGGTTCAGG , state its measured switch fluorescence ratio.
Response: 1

Request: Give the reported value of switch fluorescence ratio for this record: AGCTCGGCGC
Response: 1.02

Request: Answer with the recorded switch fluorescence ratio for the sequence listed here: CATATTGAAT
Response: 1.01

Request: Tell me switch fluorescence ratio reported for AAAATTCAGT
Response: 0.989

Request: Supply recorded switch fluorescence ratio for CATTCATGCT here.
Response: 0.971

###

# Test system: ATP;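 further: ATP exposure 15 min at 22 °C before imaging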
# protocol description: switch fluorescence ratio, 500 uM ATP over buffer (Cy3 cluster intensity, sum of 5 cycles each) (fold (ratio)); higher = stronger signal-on switching upon ATP binding; sequences stand for … in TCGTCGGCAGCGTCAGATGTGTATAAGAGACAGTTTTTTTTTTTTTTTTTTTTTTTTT…TC
# run conditions: aptamer strand: ATP DNA aptamer (quencher-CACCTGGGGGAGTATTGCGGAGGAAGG + anchor), 100 nM annealed; ATP concentration: 500 uM
measured parameter: switch fluorescence ratio
Format: numeric value only, no unit, no commentary.

[[record]]
sequence_data = "TATGTTTAAA"
value_reported = 0.992

[[record]]
sequence_data = "TTTCGACCTG"
value_reported = 0.987


Request: Give a short answer stating reported switch fluorescence ratio for AACCATACTA .
Response: 1.19

Request: Quote switch fluorescence ratio reported for GCATTGTGTT please.
Response: 0.991

###

# Test system: ATP;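 further: ATP exposure 15 min at 22 °C before imaging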
# protocol description: switch fluorescence ratio, 500 uM ATP over buffer (Cy3 cluster intensity, sum of 5 cycles each) (fold (ratio)); higher = stronger signal-on switching upon ATP binding; sequences stand for … in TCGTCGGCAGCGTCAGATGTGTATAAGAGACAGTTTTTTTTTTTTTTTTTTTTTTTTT…TC
# run conditions: aptamer strand: ATP DNA aptamer (quencher-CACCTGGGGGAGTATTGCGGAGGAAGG + anchor), 100 nM annealed; ATP concentration: 500 uM
Please enter 1 where switch fluorescence ratio is greater than or equal to 1, and -1 where it is lower.

Before answering, review these 6 worked examples.
[[record]]
sequence_data = "CCGGTCAGTG"
class_label = 1

[[record]]
sequence_data = "CAAATGGTTC"
class_label = -1

[[record]]
sequence_data = "GTGACAGGTG"
class_label = 1

[[record]]
sequence_data = "GGGGGAATAG"
class_label = 1

[[record]]
sequence_data = "TTGCATAGTG"
class_label = -1

[[record]]
sequence_data = "TAAAGGTACA"
class_label = 1


Request: Tell me whether switch fluorescence ratio is at least 1 here: GCAAGATCGC
Response: 1

Request: In plain terms: is recorded switch fluorescence ratio at least 1 for ATTTGGCGCG ?
Response: -1

Request: Exam item: decide whether the reported switch fluorescence ratio for CAGGTGTGGA is at least 1.
Response: 1

Request: Textbook exercise: given the entry ACCGGTTTTT , state whether its switch fluorescence ratio is greater than or equal to 1.
Response: 1

Request: hey, is switch fluorescence ratio for this one >= 1? GATCACTGTA
Response: 1

Request: Evaluate CGAAATTACG : switch fluorescence ratio at minimum 1?
Response: 1

Request: Tell me whether switch fluorescence ratio is at least 1 here: TTGTAAAA
Response: -1

Request: Check the entry TCTGGGGTTT : does switch fluorescence ratio equal or exceed 1?
Response: 1

Request: Hi team, for GCATGCGCTC , is the recorded switch fluorescence ratio at or above 1?
Response: 1

src = the supplement of paper PMC10126150
